- TEST SYSTEM: Platelet rich plasma, PRP (Canis lupus familiaris, UniProt A0A8I3N5G5+A0A8I3PMU9)
- Sequence (A0A8I3N5G5 1-1047): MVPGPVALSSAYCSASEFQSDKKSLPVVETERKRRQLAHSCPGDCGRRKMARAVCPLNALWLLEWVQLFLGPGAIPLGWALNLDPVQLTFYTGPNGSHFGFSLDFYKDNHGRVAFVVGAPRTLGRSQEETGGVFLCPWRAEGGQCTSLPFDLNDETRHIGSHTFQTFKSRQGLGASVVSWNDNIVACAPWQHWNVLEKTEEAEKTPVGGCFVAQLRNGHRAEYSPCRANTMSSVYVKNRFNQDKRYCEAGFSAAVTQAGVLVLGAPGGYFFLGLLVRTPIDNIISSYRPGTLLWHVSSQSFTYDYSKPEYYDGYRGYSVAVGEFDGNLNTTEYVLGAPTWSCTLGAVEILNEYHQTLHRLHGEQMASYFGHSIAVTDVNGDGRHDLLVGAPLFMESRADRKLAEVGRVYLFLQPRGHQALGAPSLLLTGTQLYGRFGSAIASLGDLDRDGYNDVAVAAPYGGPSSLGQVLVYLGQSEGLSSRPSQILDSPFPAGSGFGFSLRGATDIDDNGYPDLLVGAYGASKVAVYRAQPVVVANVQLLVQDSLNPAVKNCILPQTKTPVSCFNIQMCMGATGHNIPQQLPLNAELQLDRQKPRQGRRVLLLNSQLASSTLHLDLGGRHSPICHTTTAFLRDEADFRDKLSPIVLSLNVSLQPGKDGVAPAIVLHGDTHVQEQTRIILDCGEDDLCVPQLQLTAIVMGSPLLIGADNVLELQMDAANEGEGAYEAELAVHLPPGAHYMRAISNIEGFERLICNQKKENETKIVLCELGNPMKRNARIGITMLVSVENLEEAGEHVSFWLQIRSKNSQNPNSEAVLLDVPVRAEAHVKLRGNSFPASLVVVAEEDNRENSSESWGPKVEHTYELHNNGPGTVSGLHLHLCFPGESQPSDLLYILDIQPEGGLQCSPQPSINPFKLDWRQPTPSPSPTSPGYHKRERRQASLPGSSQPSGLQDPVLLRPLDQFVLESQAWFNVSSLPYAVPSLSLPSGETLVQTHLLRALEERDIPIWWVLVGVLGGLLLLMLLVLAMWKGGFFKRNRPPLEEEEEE
- Sequence (A0A8I3PMU9 1-919): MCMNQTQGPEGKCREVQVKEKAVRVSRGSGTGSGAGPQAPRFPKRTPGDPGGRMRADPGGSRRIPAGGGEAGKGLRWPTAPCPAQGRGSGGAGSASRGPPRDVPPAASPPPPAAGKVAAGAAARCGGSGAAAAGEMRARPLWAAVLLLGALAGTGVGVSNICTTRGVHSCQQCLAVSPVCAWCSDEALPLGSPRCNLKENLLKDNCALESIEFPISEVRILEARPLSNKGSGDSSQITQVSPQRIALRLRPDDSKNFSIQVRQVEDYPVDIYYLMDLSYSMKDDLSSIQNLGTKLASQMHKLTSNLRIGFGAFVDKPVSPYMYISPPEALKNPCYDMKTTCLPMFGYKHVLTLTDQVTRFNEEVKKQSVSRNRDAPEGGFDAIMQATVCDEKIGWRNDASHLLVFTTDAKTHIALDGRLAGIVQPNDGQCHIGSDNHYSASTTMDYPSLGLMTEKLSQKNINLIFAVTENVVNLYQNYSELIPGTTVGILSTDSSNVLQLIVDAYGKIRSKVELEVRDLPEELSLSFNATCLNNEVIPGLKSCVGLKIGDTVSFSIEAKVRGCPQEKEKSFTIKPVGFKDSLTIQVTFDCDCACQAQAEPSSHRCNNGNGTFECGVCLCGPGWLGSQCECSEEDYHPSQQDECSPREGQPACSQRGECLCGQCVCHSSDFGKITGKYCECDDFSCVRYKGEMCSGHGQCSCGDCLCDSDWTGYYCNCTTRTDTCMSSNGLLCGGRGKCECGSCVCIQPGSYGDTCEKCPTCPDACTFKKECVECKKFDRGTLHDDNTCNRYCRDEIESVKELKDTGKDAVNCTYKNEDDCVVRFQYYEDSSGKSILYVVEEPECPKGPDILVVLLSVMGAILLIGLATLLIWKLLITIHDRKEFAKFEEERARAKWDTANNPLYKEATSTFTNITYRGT
- EXPERIMENT NOTES: Inhibition of platelet aggregation, PRP/ADP
- Type: cell-based
- CONDITION CONTEXT: dog platelet rich plasma, 2 μM ADP, peptide added 3 min. prior to agonist; read-out: Antiaggregatory Activity IC50, μM PRP/ADP
Positions of bridges follow the written chain, without caps; N, C: chain ends. Non-standard residues stand in square brackets, D forms with d.
TEST READOUT: IC50
Field: value (include unit after the number)

Enquiry: Give its IC50 value. Item: Ac-RRGDF-NH2 [Example 33, N^α -Ac-Arg-Arg-Gly-Asp-Phe-NH2]
Return: 113 µM

Enquiry: # get_value(readout='IC50', item= N^α -Ac-Cyclo(S,S)Cys-MeArg-Gly-Asp-Cys-NH2 (Ac-C[MeArg]GDC-NH2; disulfide N-5) [Example 8] )
Return: 0.91 µM

Enquiry: Could you share which IC50 value was measured for Gly-MeArg-Gly-Asp-Ser-NH2 (RGDS; N-terminal Gly-Me; C-terminal amide; printed: Arg-Gly-Asp-Ser-) [Example 39] ?
Return: 12 µM

Enquiry: IC50 lookup needed for N^α -Ac-Arg-Gly-Asp-Tyr-NH2 [Example 28] , thanks.
Return: 102 µM
